tested on: HCT-116 colon; test: NCI-60 one-dose screen, 48 h; conditions: 10 µM unless noted
Compounds without any hit were thinned out: in the full panel of roughly 83,000, 20% have a hit. The source made the active and inactive calls. How the source made its calls: active means growth percent below 10; inactive means the rest.
Tick one outcome: active, inactive

Q: Status in this test for O=C(c1ccc(F)c(F)c1Nc1ccc(I)cc1F)N1CC(O)([C@@H]2CCCCN2)C1 ?
Ans: active

Q: What outcome does the record of this test show for CCN(CC)CCN1C(=O)c2cccc3c(-c4ccc5c(c4)ncn5C4CCCCC4)ccc(c23)C1=O ?
Ans: active

Q: Name the outcome recorded for CCN1CCN(Cc2ccc(NC(=O)Nc3nc(-c4cc(OC)c(OC)c(OC)c4)cs3)cc2C(F)(F)F)CC1 in the assay.
Ans: active

Q: What is the recorded call for this molecule in the test? Cc1c(NC(=O)OC[C@@H]2COCCN2)cn2ncnc(Nc3ccc4c(cnn4Cc4cccc(F)c4)c3)c12
Ans: active

Q: For this molecule, state the assay outcome: O=C1NC(=O)[C@@H](c2cn3c4c(cccc24)CCC3)[C@@H]1c1c[nH]c2ccccc12
Ans: active

Q: Check the results log: what was the call for Nc1cc2c(cc1Br)-c1c(C(=O)O)cccc1C2O (stereo not drawn) ?
Ans: inactive

Q: Short answer needed: outcome of this test for COc1cc(-c2cc(-c3ccc(Nc4ccnc5cc(Cl)ccc45)cc3)nc(N3CCOCC3)n2)cc(OC)c1OC ?
Ans: active

Q: Check the results log: what was the call for CC(=O)c1cnc2ccc(-c3cc(Cl)c(O)c(Cl)c3)nc2c1NC1CCC(CN(C)C)CC1 (stereo not drawn) ?
Ans: active

Q: Outcome logged for O=C(Cn1c(=O)ccn(CCCCCCCCOc2ccc(Br)cc2)c1=O)Nc1ccc(Oc2ccc(Cl)cc2)cc1 in this assay:
Ans: inactive

Q: Give the logged outcome of this assay for the following molecule: CCCCCCCC(=O)SCC/C=C/[C@@H]1CC(=O)NCc2cccc(n2)C2=N[C@@](C)(CS2)C(=O)N[C@@H](C(C)C)C(=O)O1
Ans: active

Q: What did this assay record as the result for Cc1ccc(NC(=O)c2ccc(CN3CC[C@H](N(C)C)C3)c(C(F)(F)F)c2)cc1Nc1nccc(-c2cncnc2)n1 ?
Ans: active

Q: Hi, sorry to bother you, what did the test record for CC(=O)C1=C(C)NC(SCc2nnc(-c3ccc(C)cc3)o2)=NC1c1ccc(F)cc1 (stereo not drawn) ?
Ans: inactive

Q: Record lookup: outcome of this test for CCCNC(=O)c1cn2ncnc(Nc3cc(C(=O)NC4CC4)ccc3C)c2c1C ?
Ans: inactive

Q: Outcome logged for CCc1nc2cc(/C=C/C(=O)NO)c(F)cc2c(=O)n1CCc1ccccc1 in this assay:
Ans: active

Q: Call for entry COC(=O)CCCNc1c(-c2c(O)c(O)cc3c(O)c(-c4c(C)cc5c(-c6nc7ccccn7c6NCCCC(=O)OC)c(O)c(O)cc5c4O)c(C)cc23)nc2ccccn12 :
Ans: active

Q: Please share the test call associated with CCOC(=O)C1=C(C)NC(=O)NC1c1cc(=O)oc2ccc(C)cc12 (stereo not drawn) .
Ans: inactive

Q: Returns: the outcome recorded for CCOC(=O)Sc1ncnc2nc[nH]c12 in this assay.
Ans: inactive

Q: Query: recorded result category for Cc1cc(Nc2ncc(Cl)c(Nc3ccccc3S(=O)(=O)C(C)C)n2)c(OC(C)C)cc1C1CCNCC1 in this test
Ans: active
